Would you mind telling me the reported CC50 at 4 h of each entry?
PROCEDURE DETAILS: Cytotoxicity, MTT assay
Assay type: cell-based
CONDITION NOTES: human, HepG2 cells, 4 h peptide incubation in MEMα, average of three studies, read-out: LC50 (HepG2 cells)
Ends that are not written are not given here.

Qu. # CC50 at 4 h lookup, item RWHLTHRPKTGYIRVLVH-NH2 [HBP-1]
Ans. > 200 µM

Qu. What does the data say about its CC50 at 4 h? Entry: FRFKRKLPKYLLF-NH2 [HBP-3]
Ans. > 200 µM

Qu. State the recorded CC50 at 4 h for this entry: RFYLSKKKWVMVP-NH2 [HBP-2]
Ans. > 200 µM

Numbers sourced from paper PMC12223310.
